- System: antibodies (h1F6 produced by CHO DG44 cell line)
- measurement.notes: Incorporation of fucose analogs into antibodies in CHO DG44 cell culture
- Format: cell-based
- applied.conditions: 1 mM
experimental.readout: % Incorporation

Below: 5 compounds and their reported % Incorporation.
1. CC(=O)OC1OC(CBr)[C@@H](OC(C)=O)[C@@H](OC(C)=O)[C@@H]1OC(C)=O (stereo partly drawn) | 20% at
2. C=C(C)[C@@H]1OC(OC(C)=O)[C@@H](OC(C)=O)[C@H](OC(C)=O)[C@@H]1OC(C)=O (stereo partly drawn) | >80% (1 mM and 50 uM)
3. CC(=O)OC1OC(CF)[C@@H](OC(C)=O)[C@@H](OC(C)=O)[C@@H]1OC(C)=O (stereo partly drawn) | >90%
4. CC[C@@H]1OC(OC(C)=O)[C@@H](OC(C)=O)[C@H](OC(C)=O)[C@H]1OC(C)=O (stereo partly drawn) | >90%
5. CC[C@@H]1OC(O)[C@@H](O)[C@H](O)[C@@H]1O (stereo partly drawn) | >80%

Next up:
Exercise: Could you tell me which % Incorporation is on file for C#CC[C@@H]1OC(OC(C)=O)[C@@H](OC(C)=O)[C@H](OC(C)=O)[C@@H]1OC(C)=O (stereo partly drawn) ?
Key: 80% (1 mM)

* * *

- Test system: LP-1 cells (1,6-fucosylation on the antibody)
- measurement.notes: Fucosylation status of LP-1-generated IgG by reducing PLRP-MS
- Type: cell-based, human
- applied.conditions: 100 μM, 5 days, in words
experimental.readout: PLRP/MS (inhibition or incorporation)

1) CC(=O)OC1OC(CF)[C@@H](OC(C)=O)[C@@H](OC(C)=O)[C@@H]1OC(C)=O (some centres unmarked) | Full incorporator
2) C=CC1OC(OC(C)=O)C(OC(C)=O)C(OC(C)=O)C1OC(C)=O (centres unmarked) [SGD-1922, 5-ethylenylarabinose tetraacetate] | Full incorporator
3) CC(=O)OC1OC(C(F)F)C(OC(C)=O)C(OC(C)=O)C1OC(C)=O (centres unmarked) [SGD-2046, 6′6-difluoro fucose tetraacetate] | Partial incorporator
4) CC(=O)OC1OC(CBr)[C@@H](OC(C)=O)[C@@H](OC(C)=O)[C@@H]1OC(C)=O (some centres unmarked) | Partial incorporator

* * *

- Test system: LP-1, a human multiple myeloma cell line (IgG fucosylation)
- measurement.notes: Fucosylation of LP-1-generated IgG, AOL dot blot
- Format: cell-based
- applied.conditions: 100 μM, 5 days, LP-1 cells, AOL dot blot; multiple samples separated by semicolon
Can you tell me % of control fucosylated IgG value for the items I'm about to list?

Exercise: Bench note: what % of control fucosylated IgG value did CO[C@@H]1O[C@@H](C)[C@@H](O)[C@@H](O)[C@@H]1O [SGD-1932, Methyl a-L-fucopyranoside] show?
Key: 87 % of control

Exercise: Entry C=CC1OC(OC(C)=O)C(OC(C)=O)C(OC(C)=O)C1OC(C)=O (centres unmarked) [SGD-1922, 5-ethylenylarabinose tetraacetate] has what % of control fucosylated IgG value?
Key: 2 % of control

Exercise: % of control fucosylated IgG value lookup needed for C#C[C@@H]1OC(OC(=O)CC)[C@@H](OC(=O)CC)[C@H](OC(=O)CC)[C@@H]1OC(=O)CC (some centres unmarked) [SGD-2010, 5-ethynylarabinose tetrapropropanoate] , thanks.
Key: 1.5 % of control

Exercise: # lookup: % of control fucosylated IgG value of COC(=O)[C@@H]1OC(OC(C)=O)[C@@H](OC(C)=O)[C@H](OC(C)=O)[C@@H]1OC(C)=O (some centres unmarked)
Key: 71 % of control

Exercise: What measured % of control fucosylated IgG value goes with CC(=O)OC1OC(C(F)F)C(OC(C)=O)C(OC(C)=O)C1OC(C)=O (centres unmarked) [SGD-2046, 6′6-difluoro fucose tetraacetate] ?
Key: 2 % of control

Exercise: Look up % of control fucosylated IgG value: CC(=O)OC1C=COC(C)C1OC(C)=O (centres unmarked) [SGD-2080, 1,2-dideoxy-1,2-dehydro fucose diacetate]
Key: 159 % of control

Exercise: Data request, read-out % of control fucosylated IgG value, for CC(=O)OC1COC(C)C(OC(C)=O)C1OC(C)=O (centres unmarked) [SGD-2081, 1-deoxy fucose triacetate]
Key: 70 % of control

Exercise: Which measured % of control fucosylated IgG value value corresponds to CC(=O)O[C@@H]1[C@H](OC(C)=O)[C@H](C)OC(F)[C@H]1F (some centres unmarked) [SGD-2082, 1,2-difuloro fucose diacetate] ?
Key: 87 % of control

These entries and their values trace back to patent US9504702B2.
